# TGI per entry
tested on: SF-539 CNS; assay: NCI tumour cell line growth inhibition, 48 h

COMPOUND: O=C1/C=C/[C@@H](O)[C@@H]2C[C@@H](O)C[C@H]2/C=C/CCC[C@H](CCc2ccccc2)O1
SYSTEM NAME: SF-539 CNS
TGI: > 66.5 µM

COMPOUND: O=C(NC(O)(C(F)(F)F)C(F)(F)F)c1ccccc1
SYSTEM NAME: SF-539 CNS
TGI: > 100 µM

COMPOUND: COc1ccc(OC)c(C#N)c1C#N (tested in a mixture with another compound)
SYSTEM NAME: SF-539 CNS
TGI: > 100 µM

COMPOUND: CN1CCCC2[C@@H]3CCC4=C(O)C(=O)CC[C@]4(C)C3CC[C@@]21C (some centres undefined)
SYSTEM NAME: SF-539 CNS
TGI: > 100 µM

* * *

tested on: SK-OV-3 ovarian; test: NCI tumour cell line growth inhibition, 48 h
# TGI per entry

COMPOUND: COc1ccc(C(=S)N(C)NC(=O)CC(=O)NN(C)C(=S)c2ccc(OC)cc2)cc1
TGI: > 100 µM
--
COMPOUND: CCOC(=O)N1CCN(P(=O)(Nc2ccc3nc(NC(=O)OC)[nH]c3c2)Oc2ccccc2)CC1 (stereo not given)
TGI: > 100 µM
--
COMPOUND: C=C(C(=O)OC)N1C(=O)CC(C)C1=O (stereo not given)
TGI: 98.9 µM
--
COMPOUND: COC(=O)C(Cc1ccc(OC)cc1O)NC(=O)OC(C)(C)C (stereo not given)
TGI: > 100 µM
--
COMPOUND: O=C(NC(=S)Nc1ccc2c(c1)Sc1ccccc1O2)c1ccccc1
TGI: > 100 µM
--
COMPOUND: COc1ccc(/C=C/C2C(C#N)=C(N)OC3=C2C(=O)CCC3)cc1 (stereo not given)
TGI: 77.6 µM
--
COMPOUND: Cc1cc(N(CCC#N)CCC#N)ccc1/C=N/NC(=O)c1ccccc1
TGI: > 100 µM
--
COMPOUND: Cc1ccc(C2CC(c3cccc([N+](=O)[O-])c3)=Nc3ccccc3S2)cc1 (stereo not given)
TGI: > 100 µM
--
COMPOUND: O=S1OC[C@H](CCCl)O1 (stereo not given in full)
TGI: > 100 µM
--
COMPOUND: CCOC(=O)[C@@H]1[C@@H]2NC(=O)N[C@@]1(C)Oc1ccccc12
TGI: > 100 µM
--
COMPOUND: CCc1ccc(C(=O)/C=C/C23c4ccccc4C(c4ccccc42)C2C(=O)NC(=O)C23)cc1 (stereo not given)
TGI: 7.54 µM
--
COMPOUND: CC(=O)Nc1ccc(C2C(C(=O)Nc3ccccc3)=C(C)NC(C)=C2C(=O)Nc2ccccc2)cc1
TGI: > 100 µM
--
COMPOUND: N#CNCC(COCc1ccccc1)c1ccccc1 (stereo not given)
TGI: > 100 µM
--
COMPOUND: NNC(=O)c1ccccc1Nc1nc(-c2cccs2)nc2ccc(Br)cc12
TGI: > 100 µM
--
COMPOUND: Clc1c2ncccc2cc2n[nH]nc12
TGI: > 100 µM
--
COMPOUND: O=C(OCC1OC(n2cc(C(F)(F)F)c(=O)[nH]c2=O)CC1OC(=O)c1ccc([N+](=O)[O-])cc1)c1ccc([N+](=O)[O-])cc1 (stereo not given)
TGI: > 100 µM
--
COMPOUND: CCOc1ccc(NC(=O)/C(=C\c2ccc(C)cc2)C(C)=O)cc1
TGI: > 100 µM
--
COMPOUND: Cc1cccc(C)c1NC(=O)C(=O)C(C#N)c1ccccc1 (stereo not given)
TGI: > 100 µM
--
COMPOUND: COC(=O)/C=C\[C@H]1[C@H](C)N1S(=O)(=O)c1ccc(C)cc1 (stereo not given in full)
TGI: > 100 µM
--
COMPOUND: CN(CCCNC(=O)c1nn(-c2ccccc2)c2c1ccc1ccccc12)CCCNC(=O)c1nn(-c2ccccc2)c2c1ccc1ccccc12
TGI: 3.38 µM
--
COMPOUND: O=S(=O)(O)c1cc(S(=O)(=O)O)c2c(Nc3ccnc4ccccc34)ccc(S(=O)(=O)O)c2c1
TGI: > 100 µM
--
COMPOUND: CC1=CC2C(=O)N(c3ccccc3)C(=O)C2CC1n1[nH]c(=O)n(Cc2ccccc2)c1=O (stereo not given)
TGI: > 100 µM
--
COMPOUND: C=C1c2nc3ccccc3n2C=C(c2ccc(C)cc2)N1c1ccccc1
TGI: > 100 µM
--
COMPOUND: CSc1nc(NC2OC(COC(C)=O)C(OC(C)=O)C(OC(C)=O)C2OC(C)=O)c(N=CC=Nc2c(NC3OC(COC(C)=O)C(OC(C)=O)C(OC(C)=O)C3OC(C)=O)nc(SC)[nH]c2=O)c(=O)[nH]1 (stereo not given)
TGI: > 100 µM
--
COMPOUND: O=C(CN1CCN(c2cccc(Cl)c2)CC1)N1CCc2c([nH]c3ccccc23)C1c1cccnc1 (stereo not given)
TGI: > 100 µM
--
COMPOUND: O=C(Nc1ccc(Cl)cc1)Nc1ccc(Cl)c(C(F)(F)F)c1
TGI: 6.8 µM
--
COMPOUND: COC1O[C@@H]2COC(C)(C)O[C@@H]2C(=O)N1Nc1ccc([N+](=O)[O-])cc1 (stereo not given in full)
TGI: > 100 µM
--
COMPOUND: Cc1ccc(C2=NN(c3ccc(S(C)(=O)=O)cc3)C(=O)CC2)cc1
TGI: 21.5 µM
--
COMPOUND: Clc1ccccc1/C=C/c1ccnc2ccccc12
TGI: 32.8 µM
--
COMPOUND: CCN(CC)CCN1C(=O)CC2[C@@H]3CCc4cc(OC)ccc4C3CC[C@]2(C)C1=O (stereo not given in full)
TGI: > 100 µM
--
COMPOUND: O=[N+]([O-])c1nccn1COCCO
TGI: > 100 µM
--
COMPOUND: COC(=O)C1=C(C=O)C2C=CC1C2 (stereo not given)
TGI: > 100 µM
--
COMPOUND: COc1cc(-c2nn(-c3cccc(NC(=O)Nc4cccc(C(F)(F)F)c4)c3)cc2-c2ccncc2)ccc1Cl
TGI: 15.4 µM
--
COMPOUND: CN(C)CCONC(=O)C12CC3CC(CC(C3)C1)C2
TGI: > 100 µM
--
COMPOUND: Cc1ccccc1NC(=O)C(=O)c1c(O)c2ccc(O)cc2oc1=O
TGI: > 100 µM

* * *

test system: M14 melanoma; assay: NCI tumour cell line growth inhibition, 48 h
QUANTITY KIND: TGI

COMPOUND: COc1cc(C(=O)N(C)N(C)C)cc(OC)c1OC
SYSTEM NAME: M14 melanoma
QUANTITY KIND: TGI
RESULT: > 10 µM
--
COMPOUND: N#CC(C#N)=Cc1c[nH]c(=O)[nH]c1=O
SYSTEM NAME: M14 melanoma
QUANTITY KIND: TGI
RESULT: > 100 µM
--
COMPOUND: COC(=O)c1cnc(Cl)c([N+](=O)[O-])c1
SYSTEM NAME: M14 melanoma
QUANTITY KIND: TGI
RESULT: 27 µM
--
COMPOUND: CNC(=S)/C(C#N)=C(\N)N1CCN(C)CC1
SYSTEM NAME: M14 melanoma
QUANTITY KIND: TGI
RESULT: > 100 µM
--
COMPOUND: Cc1ccc(NC(=O)CC(=O)N2N=C(N(C)c3ccccc3)CC2c2ccccc2)cc1 (stereo not given)
SYSTEM NAME: M14 melanoma
QUANTITY KIND: TGI
RESULT: > 100 µM

* * *

test system: SF-295 CNS; experiment: NCI tumour cell line growth inhibition, 48 h; in the data active = GI50 below about 0.43 µM; inactive = the rest
Classes used: Y for active, N for inactive

COMPOUND: COC(=O)/C=C1/SC(=Nc2ccc(F)cc2)N(CCc2c[nH]c3ccc(O)cc23)C1=O
ASSIGNED LABEL: N
--
COMPOUND: COc1ccc(C2C=C(c3ccc(OC)c(OC)c3)N=C3SC=CN32)c(Br)c1 (stereo not drawn)
ASSIGNED LABEL: N
--
COMPOUND: Cc1cc(=O)n2nnc3c4ccccc4ccc3n12
ASSIGNED LABEL: N
--
COMPOUND: Nc1c(C(=O)c2cccc(OC[C@@H](O)CO)c2)cnn1-c1ccc(F)cc1
ASSIGNED LABEL: N
--
COMPOUND: CCOC(=O)/C(C#N)=C\C=C(\Sc1nc2ccccc2s1)c1ccc(Cl)cc1
ASSIGNED LABEL: N
--
COMPOUND: CCc1ccc(C(=O)/C=C/C23c4ccccc4C(c4ccccc42)C2C(=O)NC(=O)C23)cc1 (stereo not drawn)
ASSIGNED LABEL: N
--
COMPOUND: CC(=O)NC1C(OCc2ccccc2)OC(CO)C(O)C1OC(C)C(=O)NC(C)C(=O)N[C@@H](CCC(=O)OCCCNC1c2ccccc2Nc2cccc([N+](=O)[O-])c21)C(N)=O (stereo partly drawn)
ASSIGNED LABEL: Y
--
COMPOUND: CC(C)Oc1ccc(-c2nn([C@@H](C)c3oc4ccc(F)cc4c(=O)c3-c3cccc(F)c3)c3ncnc(N)c23)cc1F
ASSIGNED LABEL: N
